IC50 by entry:
# Tgt: GIPR (CHO-K1-hGIPR cells) (Homo sapiens)
# Construct: host or cells: CHO-K1
# Sequence (P48546 22-466): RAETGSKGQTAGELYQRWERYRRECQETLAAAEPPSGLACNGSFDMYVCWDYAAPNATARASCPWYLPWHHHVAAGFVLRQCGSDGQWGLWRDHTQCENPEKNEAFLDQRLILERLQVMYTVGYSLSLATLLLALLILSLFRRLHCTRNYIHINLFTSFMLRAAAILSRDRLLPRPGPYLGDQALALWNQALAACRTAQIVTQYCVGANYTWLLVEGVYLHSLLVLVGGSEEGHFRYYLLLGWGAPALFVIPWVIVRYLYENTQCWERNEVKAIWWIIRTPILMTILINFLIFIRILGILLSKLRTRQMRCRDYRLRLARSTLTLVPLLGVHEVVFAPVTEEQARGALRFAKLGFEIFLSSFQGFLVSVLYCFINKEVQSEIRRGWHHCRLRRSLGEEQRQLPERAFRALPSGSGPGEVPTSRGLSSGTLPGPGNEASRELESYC
# Measurement notes: FACS binding assay
# Experimental conditions: competition with 20 nM GIP-057, 4° C. for 1 hour, read-out: pIC50 Category (converted)
*1 amine or outer side, *2 acyl side, *3 side chain or, on linkers, in order; H or OH if unused. Where a SMILES comes first, the peptide text is derived from it. Bridges are numbered along the chain shown (N, C = ends). [ ]: non-standard residue; d: D form. Nip(3R) = O=C([C@@H]1CCCN([*:1])C1)[*:2]; 1Nal = N[C@@H](Cc1cccc2ccccc12)C(=O)O; mXylylene = c1cc(C[*:1])cc(C[*:2])c1; Dap = NC[C@H](N)C(=O)O; Aib = CC(C)(N)C(=O)O

Given CC[C@H](C)[C@@H]1NC(=O)[C@H](CC(C)C)NC(=O)C(C)(C)NC(=O)[C@@H](NC(=O)[C@H](CC(C)C)NC(=O)[C@H](CCC(=O)O)NC(=O)[C@@H]2CCCN(C(=O)[C@H](Cc3cccc4ccccc34)NC(=O)[C@H](Cc3c[nH]c4ccccc34)NC(=O)[C@H](CC(=O)O)NC(C)=O)C2)CSCc2cccc(c2)CSC[C@@H](C(N)=O)NC1=O [GIP-342] (Ac-DW[1Nal][Nip(3R)]ELC[Aib]LIC-NH2; linker 7-11 via mXylylene) , state its recorded IC50.
> 1000 nM

Continuing:
Given CC[C@H](C)[C@@H]1NC(=O)[C@H](CC(C)C)NC(=O)C(C)(C)NC(=O)[C@@H](NC(=O)[C@H](CNC(C)=O)NC(=O)[C@H](CCC(=O)O)NC(=O)[C@@H]2CCCN2C(=O)[C@H](Cc2cccc3ccccc23)NC(=O)[C@H](Cc2c[nH]c3ccccc23)NC(=O)[C@H](CC(=O)O)NC(C)=O)CSCc2cccc(c2)CSC[C@@H](C(N)=O)NC1=O [GIP-348] (Ac-DW[1Nal]PE[Dap](Ac)C[Aib]LIC-NH2; linker 7-11 via mXylylene) , state its recorded IC50.
> 1000 nM

Each recorded value in this set is attributed to patent US20250296971A1.
